SPOT peptide array binding signal intensity overview
Target: AgBzz1-D2
Experiment: SPOT peptide array binding signal intensity (averaged, normalized) (arbitrary units (background-subtracted, floor 0; scale differs between SH3 domains)); higher = stronger binding of the SH3 domain to the peptide
readout: SPOT peptide array binding signal intensity

{"binder": "NRARYLPQNPDIIAG", "bound_operator": "=", "recorded_number": 19}
{"binder": "QTMRQAPKRPDADVA", "bound_operator": "=", "recorded_number": 10}
{"binder": "QFDLKMPSKPIHNLK", "bound_operator": "≤", "recorded_number": 0}
{"binder": "QNTPPLPPKPKSPHL", "bound_operator": "=", "recorded_number": 38}

Taken from the supplement of paper PMC4466140.
